Target Entity: MMP-13 (Homo sapiens, UniProt P45452)
Construct: purchased Reaction Biology Corporation, Malvern, PA, USA (contract assay service)
Experiment: MMP-13 in vitro inhibition assay (FRET peptide substrate)
Format: biochemical
Stated Conditions: 1.4(−logIC50)/N; N = number of non-hydrogen atoms
Measured Metric: LE (Ligand Efficiency)
One number for each entry.

For orientation, consider the following solved cases.
1. O=C(O)CCCCOc1cccc(CC(=O)Nc2ccc3c(c2)C(=O)N(Cc2ccccc2)C3=O)c1	0.27
2. CS(=O)(=O)NC(=O)CCCOc1cccc(CC(=O)Nc2ccc3c(c2)C(=O)N(Cc2ccccc2)C3=O)c1	0.22
3. O=C(Cc1cccc(OCCCCO)c1)Nc1ccc2c(c1)C(=O)N(Cc1ccccc1)C2=O	0.26
4. O=C(O)CCCOc1cccc(CC(=O)Nc2ccc3c(c2)C(=O)N(Cc2ccccc2)C3=O)c1	0.24

Now take the following molecule into account.
Challenge: For the molecule shown here, `O=C(O)CCCCCOc1cccc(CC(=O)Nc2ccc3c(c2)C(=O)N(Cc2ccccc2)C3=O)c1` , give the reported LE (Ligand Efficiency).
Response given: 0.25

---

Target Entity: MMP-13 (Homo sapiens)
Construct: purchased Reaction Biology Corporation, Malvern, PA, USA (contract assay service)
Experiment: MMP-13 in vitro inhibition assay (FRET peptide substrate)
Format: biochemical
Stated Conditions: at 10 μM inhibitor concentration; triplicate; read-out: % Activity (remaining enzyme activity)
Classify: TRUE when remaining activity at 10 µM is strictly less than 10%; FALSE when remaining activity at 10 µM is not.

1) CS(=O)(=O)NC(=O)CCCCOc1cccc(CC(=O)Nc2ccc3c(c2)C(=O)N(Cc2ccccc2)C3=O)c1 [Compound 4]	FALSE
2) O=C(O)CCCOc1cccc(CC(=O)Nc2ccc3c(c2)C(=O)N(Cc2ccccc2)C3=O)c1 [Compound 15]	TRUE
3) O=C(Cc1cccc(OCCCO)c1)Nc1ccc2c(c1)C(=O)N(Cc1ccccc1)C2=O [Compound 11]	TRUE
4) O=C(Cc1cccc(OCCCCO)c1)Nc1ccc2c(c1)C(=O)N(Cc1ccccc1)C2=O [Compound 12]	TRUE

Challenge: Threshold test, remaining activity at 10 µM < 10%: CS(=O)(=O)NC(=O)CCCOc1cccc(CC(=O)Nc2ccc3c(c2)C(=O)N(Cc2ccccc2)C3=O)c1 [Compound 18]
Response given: FALSE

Challenge: Threshold test, remaining activity at 10 µM < 10%: O=C(Cc1cccc(OCCCCCO)c1)Nc1ccc2c(c1)C(=O)N(Cc1ccccc1)C2=O [Compound 2]
Response given: TRUE

Challenge: Threshold test, remaining activity at 10 µM < 10%: O=C(Cc1cccc(OCCCCCCO)c1)Nc1ccc2c(c1)C(=O)N(Cc1ccccc1)C2=O [Compound 13]
Response given: FALSE

---

Target Entity: MMP-13 (Homo sapiens, UniProt P45452)
Construct: purchased Reaction Biology Corporation, Malvern, PA, USA (contract assay service)
Experiment: MMP-13 in vitro inhibition assay (FRET peptide substrate)
Assay type: biochemical
Stated Conditions: LLE = pIC50 - clogP
Measured Metric: LLE (lipophilic ligand efficiency)
Answers are plain numbers.

For orientation, consider the following solved cases.
1) CNC(=O)CCCCOc1cccc(CC(=O)Nc2ccc3c(c2)C(=O)N(Cc2ccccc2)C3=O)c1	2.45
2) O=C(O)CCCCOc1cccc(CC(=O)Nc2ccc3c(c2)C(=O)N(Cc2ccccc2)C3=O)c1	2.46
3) O=C(O)CCCCCOc1cccc(CC(=O)Nc2ccc3c(c2)C(=O)N(Cc2ccccc2)C3=O)c1	1.70

Hi! Can you tell me LLE (lipophilic ligand efficiency) for each of these compounds?
1. CS(=O)(=O)NC(=O)CCCOc1cccc(CC(=O)Nc2ccc3c(c2)C(=O)N(Cc2ccccc2)C3=O)c1
2. O=C(O)CCCOc1cccc(CC(=O)Nc2ccc3c(c2)C(=O)N(Cc2ccccc2)C3=O)c1

Response given:
1: 2.91; 2: 2.16

Hi! Can you tell me LLE (lipophilic ligand efficiency) for each of these compounds?
1. O=C(Cc1cccc(OCCCCO)c1)Nc1ccc2c(c1)C(=O)N(Cc1ccccc1)C2=O
2. CS(=O)(=O)NC(=O)CCCCOc1cccc(CC(=O)Nc2ccc3c(c2)C(=O)N(Cc2ccccc2)C3=O)c1
3. O=C(Cc1cccc(OCCCCCO)c1)Nc1ccc2c(c1)C(=O)N(Cc1ccccc1)C2=O
4. O=C(Cc1cccc(OCCCO)c1)Nc1ccc2c(c1)C(=O)N(Cc1ccccc1)C2=O

Response given:
1: 2.22; 2: 2.53; 3: 1.53; 4: 2.55
